Tested on: Enterococcus spp.
TEST_DETAILS: minimum inhibitory concentration (MIC)
CONDITION_SUMMARY: isolate (source animal id): 168
Provide the recorded minimum inhibitory concentration for the entries that follow.

INPUT: Would you kindly share the measured minimum inhibitory concentration for COc1cc(NS(=O)(=O)c2ccc(N)cc2)nc(OC)n1 ?
OUTPUT: > 256 µg/mL

INPUT: Ok, now CN(C)[C@@H]1C(O)=C(C(N)=O)C(=O)[C@@]2(O)C(O)=C3C(=O)c4c(O)cccc4[C@@](C)(O)[C@H]3C[C@@H]12
OUTPUT: > 8 µg/mL

INPUT: Param item: COc1cc(Cc2cnc(N)nc2N)cc(OC)c1OC.Cc1cc(NS(=O)(=O)c2ccc(N)cc2)no1
OUTPUT: ≤ 2 µg/mL

Every entry's value here was drawn from the supplement of paper PMC8612539.
